- TGT: GABAa receptor
- PROCEDURE_TEXT: GABAa receptor binding assay ([3H]-RO15-1788 [3H-Flumanzenil] displacement, rat cortical tissue)
- STUDY_CONDITIONS: 0.5 nM 3H-RO15-1788, rat cortical tissue, 30 min at 4° C.
Kindly supply the reported pIC50 values for the records listed here.
One number for each entry, as −log10 of the molar value.

Record pIC50 per entry; entries follow.
1. COc1ccc(-c2ncc3[nH]c4c(c3n2)CCCC4)cc1
2. c1ccc(-c2ncc3[nH]c4c(c3n2)COCC4)cc1
3. CN1C(=O)CCC12CCc1[nH]c3cnc(-c4ccccc4)nc3c1C2 (stereo not shown)
4. c1ccc(-c2ncc3[nH]c4c(c3n2)CC2(CC4)OCCO2)cc1

Resp:
1: 7.41; 2: 6.40; 3: 7.30; 4: 7.60
